Record form. Attribute: IC50. Fill in for each entry.
# assay.system: endothelin converting enzyme (ECE) (Sus scrofa)
# Sequence (F1SU04 entry or part of it): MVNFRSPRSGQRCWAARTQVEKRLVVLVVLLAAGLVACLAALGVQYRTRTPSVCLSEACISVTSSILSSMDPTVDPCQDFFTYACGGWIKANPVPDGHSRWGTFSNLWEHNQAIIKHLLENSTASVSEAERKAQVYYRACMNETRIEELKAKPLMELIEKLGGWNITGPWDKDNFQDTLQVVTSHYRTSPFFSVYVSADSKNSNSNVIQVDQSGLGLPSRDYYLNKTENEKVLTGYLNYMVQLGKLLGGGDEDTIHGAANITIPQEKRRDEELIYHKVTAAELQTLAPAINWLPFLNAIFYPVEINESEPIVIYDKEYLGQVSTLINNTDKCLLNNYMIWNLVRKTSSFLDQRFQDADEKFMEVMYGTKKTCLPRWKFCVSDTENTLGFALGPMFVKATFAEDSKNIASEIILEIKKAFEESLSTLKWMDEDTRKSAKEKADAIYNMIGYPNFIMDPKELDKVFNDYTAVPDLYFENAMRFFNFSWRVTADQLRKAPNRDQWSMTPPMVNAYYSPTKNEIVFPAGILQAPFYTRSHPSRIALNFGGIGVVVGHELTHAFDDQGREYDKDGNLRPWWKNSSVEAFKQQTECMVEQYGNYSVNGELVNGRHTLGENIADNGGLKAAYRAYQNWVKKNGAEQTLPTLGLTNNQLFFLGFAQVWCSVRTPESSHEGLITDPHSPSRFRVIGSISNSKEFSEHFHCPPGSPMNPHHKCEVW
# protocol.notes: "ECE" assay with porcine aortic "ECE" prep, fluorogenic substrate Suc-Ile-Ile-Trp-MCA
# Type: biochemical
# experimental.setup: porcine aortic endothelial cell ECE prep; 80 μM Suc-Ile-Ile-Trp-MCA; 15-20 min preincubation; overnight at 37° C.; pH 7.0; AMC fluorescence
# Description: IC50 values were determined as follows: Porcine Aortic "ECE" Prep Porcine aortas (22-25) were obtained fresh from a local slaughterhouse and delivered in cold PBS on ice. […] The ECE assay was performed in 96-well microplates in a total volume of 200μ/well. […] The assay was incubated overnight at 37° C. and the fluorescence intensity caused by the release of AMC was determined using a fluorescence microplate reader (EX360 nm/EM460 nm). […]
Residues, ends and D or L forms follow the SMILES beside them. *: point of attachment. Cbz = O=C(OCc1ccccc1)*
# include the unit after the value

>  <compound>
CC[C@H](C)[C@H](NC(=O)CCCCCNC(=O)CCCCC1SCC2NC(=O)NC21)C(=O)N[C@H](C(=O)NC(Cc1c[nH]c2ccccc12)C(OC)OC)[C@@H](C)CC (stereo partly shown)

>  <assay.system>
endothelin converting enzyme (ECE) (Sus scrofa)

>  <IC50>
0.3 µM

$$$$

Provide reported IC50 for each item, in the same order as listed.
1. CC[C@H](C)[C@H](NC(=O)OCc1cccnc1)C(=O)N[C@H](C(=O)N[C@H](C=O)Cc1c[nH]c2ccccc12)[C@@H](C)CC
2. CC[C@H](C)[C@H](NC(=O)CCCCCNC(=O)CCCCCNC(=O)OCc1ccccc1)C(=O)N[C@H](C(=O)N[C@@H](Cc1c[nH]c2ccccc12)C(OC)OC)[C@@H](C)CC
3. C#CC(=O)C(Cc1c[nH]c2ccccc12)NC(=O)[C@@H](NC(=O)[C@@H](NC(=O)OCc1ccccc1)[C@@H](C)CC)[C@@H](C)CC (stereo partly shown)
4. CC[C@H](C)[C@H](NC(=O)OCc1ccccc1)C(=O)N[C@H](C(=O)NC(CNC(=O)CCl)Cc1c[nH]c2ccccc12)[C@@H](C)CC (stereo partly shown)
5. CC[C@H](C)[C@H](NC(=O)OCc1ccccc1)C(=O)N[C@H](C(=O)N[C@H](C=O)Cc1ccc(O)cc1)[C@@H](C)CC [Example 33] (Cbz-Ile-Ile-Tyr-aldehyde)

1. 0.2 µM
2. 5 µM
3. 10 µM
4. 10 µM
5. 0.2 µM

Hey, endothelin converting enzyme (ECE) (Sus scrofa) data for CC[C@H](C)[C@@H](C=O)NC(=O)[C@H](Cc1ccccc1)NC(=O)[C@H](C)NC(=O)OCc1ccccc1 [Example 21] (Cbz-Ala-Phe-Ile-aldehyde) : IC50 came out at 1.2 µM
